- experimentNotes: NCI Yeast Anticancer Drug Screen. Data for the cln2 rad14 strain (AID 165)
- measurementConditions: S. cerevisiae cln2 rad14 strain, at 50.0 µM
Compounds without any hit were thinned out: in the full panel of roughly 79,000, 15% have a hit. Activity calls are given as the source filed them. No stated cut-off is given here; in the data, active means growth inhibition above about 70%; inactive means the rest.
Write down one outcome, taken from active, inactive

These solved cases illustrate the format of a correct answer.
I'd appreciate the recorded outcome for `COc1ccc2nc(N/N=C/c3sccc3C)cc(C)c2c1` from this test.
active

State the result this test recorded for `O=C(Nn1c(-c2ccccc2)nc2ccccc2c1=O)c1ccc(Cl)cc1` .
inactive

Hello, I am checking results. What call was entered for c1ccc(C2=NNC3c4ccccc4-c4ccccc4N3C2)cc1 (centres undefined) ?
inactive

Each compound tested received a call. Report the one for `N=c1oc2ccccc2cc1-c1nc2ccccc2[nH]1` .
inactive

Dear colleague, could you share the recorded outcome for `CCCCCC(=O)C(C)(c1nc2n(c1O)/C(=N/C(=O)Nc1ccc(Cl)cc1)N=N2)c1nc2n(c1O)/C(=N/C(=O)Nc1ccc(Cl)cc1)N=N2` when you have a moment?
inactive

Continuing:
Outcome logged for `CCN(CC)CCSc1c2ccccc2nc2cc(NCC(=O)Nc3ccccc3-c3ccccc3NC(=O)CNc3ccc4c(SCCN(CC)CC)c5ccccc5nc4c3)ccc12` in this assay:
inactive

The reported numbers originate from PubChem BioAssay (NCI).
